The origin of these recorded values is PubChem BioAssay (NCI).

Tested on: NCI-H322M lung
Experiment: NCI-60 one-dose screen, 48 h (100 = growth as untreated, 0 = no growth, -100 = all killed)
Conditions: 10 µM unless noted
This is part of a sample that, as a whole, favours compounds with a hit. Of some 83,000 tested, about 20% had one in any assay.
Classification scheme (growth): bin 0 (below 60%), bin 1 (60% to below 90%), bin 2 (90% or more)

Please review the following examples before continuing.
molecule	target-or-test-system	class
Nc1ccc(C2=NN(C(=O)c3cc(-c4ccc(Cl)cc4)nc4ccccc34)C(c3ccc(Cl)cc3)C2)cc1 (configuration not stated)	NCI-H322M lung	bin 0
CCCCc1nc(Cl)c(C2CC(c3ccc(Cl)cc3)=NN2c2cc(Cl)cc(Cl)c2)[nH]1 (configuration not stated)	NCI-H322M lung	bin 1
C=C1C(=O)O[C@H]2[C@H]1CC/C(COC(=O)c1cn(C)c3ccccc13)=C\CC[C@@]1(C)O[C@@H]21	NCI-H322M lung	bin 1
COc1cc(C2=NN(c3ccccc3)C(c3cccc(Nc4ccnc5cc(C(F)(F)F)ccc45)c3)C2)cc(OC)c1OC (configuration not stated)	NCI-H322M lung	bin 1
C#Cc1cccc(Nc2ncnc3ccc(NC(=O)c4ccccc4)cc23)c1	NCI-H322M lung	bin 0
CC(C)C[C@H](C(=O)O)N(C)C(=O)[C@@H]1CCCN1C(=O)[C@H](C)OC(=O)[C@H](CCC(N)=O)NC(=O)[C@@H]1CCC(=O)N1	NCI-H322M lung	bin 2
c1ccc(-c2n(Cc3ccc4ccccc4n3)cc[n+]2Cc2ccc3ccccc3c2)cc1	NCI-H322M lung	bin 0
COc1cc(N=Nc2cc(S(=O)(=O)O)cc3cc(S(=O)(=O)O)cc(O)c23)c(C)cc1N=Nc1c(S(=O)(=O)O)cc2cc(Nc3ccccc3)ccc2c1O	NCI-H322M lung	bin 2
CCOC(=O)c1c(C(F)(F)F)n([O-])c2ccc(Cl)cc2[n+]1=O	NCI-H322M lung	bin 0
C#Cc1ccccc1NC(=O)c1sc2nc3c(cc2c1N)CCCCCC3	NCI-H322M lung	bin 1

Field: class (growth) — entry: `C=C(C)[C@@H]1CC[C@]2(C(=O)OCCOCCOCC[P+](c3ccccc3)(c3ccccc3)c3ccccc3)CC[C@]3(C)[C@H](CC[C@@H]4[C@@]5(C)CC[C@H](OC(C)=O)C(C)(C)[C@@H]5CC[C@]43C)[C@@H]12` bin 0

Field: class (growth) — entry: `C#Cc1ccccc1NC(=O)c1sc2nc3c(cc2c1N)CCCCC3` bin 2

Field: class (growth) — entry: `NC(=O)CN1C(=O)c2ccccc2C1=O` bin 2

Field: class (growth) — entry: O=C1CC23OC(C(O)c4ccccc4N12)C1C(c2ccccc2)=NOC13 (configuration not stated) bin 1

Field: class (growth) — entry: `O=C(/C(=C/c1ccc([N+](=O)[O-])cc1)SCc1ccccc1)c1ccc(Cl)cc1` bin 2

Field: class (growth) — entry: `COC(=O)/C=C1\SC(=Nc2cccc(Cl)c2)N(CCc2c[nH]c3ccccc23)C1=O` bin 1
